# Tested on: Oryctolagus cuniculus
# test details: Neuromuscular blocking in rabbit model of propofol-induced anesthesia assessed as onset time at 272.7 nmol/kg by train-of-four response method
# Assay type: functional
Time by entry:
Dear colleague, please return just the value in min, with no unit written.

Input line: Given the entry COc1cc2c(cc1OC)[C@@H](Cc1cc(OC)c(OC)c(OC)c1)[N+](C)(CCCOC(=O)CC/C=C/CCC(=O)OCCC[N+]1(C)CCc3cc(OC)c(OC)cc3[C@H]1Cc1cc(OC)c(OC)c(OC)c1)CC2.[Cl-].[Cl-] (stereo partly drawn) [MIVACURIUM CHLORIDE] , report its measured Time.
Output line: 0.79

Input line: State the recorded Time for this entry: COc1cc2c(cc1OC)[C@@H](Cc1cc(OC)c(OC)c(OC)c1)[N+](C)(CCC(=O)OC/C=C\COC(=O)CC[N+]1(C)CCc3cc(OC)c(OC)cc3[C@H]1Cc1cc(OC)c(OC)c(OC)c1)CC2.O=S(=O)([O-])c1ccccc1.O=S(=O)([O-])c1ccccc1 (stereo partly drawn)
Output line: 1.67

Input line: Query: Time; subject: COc1cc2c(cc1OC)[C@@H](Cc1cc(OC)c(OC)c(OC)c1)[N+](C)(CCC(=O)OCC#CC#CCOC(=O)CC[N+]1(C)CCc3cc(OC)c(OC)cc3[C@H]1Cc1cc(OC)c(OC)c(OC)c1)CC2.O=S(=O)([O-])c1ccccc1.O=S(=O)([O-])c1ccccc1 (stereo partly drawn)
Output line: 1.42

Input line: Query (molecule): COc1cc2c(cc1OC)[C@@H](Cc1cc(OC)c(OC)c(OC)c1)[N+](C)(CCC(=O)OCCCCOC(=O)CC[N+]1(C)CCc3cc(OC)c(OC)cc3[C@H]1Cc1cc(OC)c(OC)c(OC)c1)CC2.O=S(=O)([O-])c1ccccc1.O=S(=O)([O-])c1ccccc1 (stereo partly drawn) ; field requested: Time
Output line: 1.25

Input line: Query (molecule): COc1cc2c(cc1OC)[C@@H](Cc1cc(OC)c(OC)c(OC)c1)[N@@+](C)(CCCOC(=O)CC/C=C/CCC(=O)OCCC[N@+]1(C)CCc3cc(OC)c(OC)cc3[C@H]1Cc1cc(OC)c(OC)c(OC)c1)CC2.[Cl-].[Cl-] (mixture of isomers) ; field requested: Time
Output line: 0.83

Input line: I'd like to know its Time. The molecule in question is CC[N@+]1(CCCOC(=O)CC/C=C/CCC(=O)OCCC[N@@+]2(CC)CCc3cc(OC)c(OC)cc3[C@H]2Cc2cc(OC)c(OC)c(OC)c2)CCc2cc(OC)c(OC)cc2[C@H]1Cc1cc(OC)c(OC)c(OC)c1.[Cl-].[Cl-]
Output line: 1.08

Input line: Name the reported Time value associated with the molecule COc1cc2c(cc1OC)[C@@H](Cc1cc(OC)c(OC)c(OC)c1)[N@+](CCCOC(=O)CC/C=C/CCC(=O)OCCC[N@@+]1(CC3CC3)CCc3cc(OC)c(OC)cc3[C@H]1Cc1cc(OC)c(OC)c(OC)c1)(CC1CC1)CC2.[Cl-].[Cl-]
Output line: 2

Input line: Can you look up the measured Time of COc1cc2c(cc1OC)[C@@H](Cc1cc(OC)c(OC)c(OC)c1)[N@+](C)(CCCOC(=O)CC/C=C/CCC(=O)OCCC[N@+]1(C)CCc3cc(OC)c(OC)cc3[C@H]1Cc1cc(OC)c(OC)c(OC)c1)CC2.[Cl-].[Cl-] for me?
Output line: 0.67

====

# Tested on: Oryctolagus cuniculus
# test details: Neuromuscular blocking in rabbit model of propofol-induced anesthesia assessed as maximal blockade at 272.7 nmol/kg by train-of-four response method relative to control
# Type: functional
recorded endpoint: Emax at 0.2727 µmol/kg (%)
# output: bare number, implied unit %

# count of solved cases: 3
Input line: What measured Emax at 0.2727 µmol/kg goes with COc1cc2c(cc1OC)[C@@H](Cc1cc(OC)c(OC)c(OC)c1)[N+](C)(CCC(=O)OC/C(Br)=C(\Br)COC(=O)CC[N+]1(C)CCc3cc(OC)c(OC)cc3[C@H]1Cc1cc(OC)c(OC)c(OC)c1)CC2.O=S(=O)([O-])c1ccccc1.O=S(=O)([O-])c1ccccc1 (some centres undefined) ?
Output line: 100

Input line: I'd like to know its Emax at 0.2727 µmol/kg. The compound in question is COc1cc2c(cc1OC)[C@@H](Cc1cc(OC)c(OC)c(OC)c1)[N+](C)(CCC(=O)OCC(C)(C)COC(=O)CC[N+]1(C)CCc3cc(OC)c(OC)cc3[C@H]1Cc1cc(OC)c(OC)c(OC)c1)CC2 (some centres undefined)
Output line: 0

Input line: // lookup Emax at 0.2727 µmol/kg for COc1cc2c(cc1OC)[C@@H](Cc1cc(OC)c(OC)c(OC)c1)[N+](C)(CCC(=O)OCC#CC#CCOC(=O)CC[N+]1(C)CCc3cc(OC)c(OC)cc3[C@H]1Cc1cc(OC)c(OC)c(OC)c1)CC2.O=S(=O)([O-])c1ccccc1.O=S(=O)([O-])c1ccccc1 (some centres undefined)
Output line: 100

---
Input line: Data request, read-out Emax at 0.2727 µmol/kg, for COc1cc2c(cc1OC)[C@@H](Cc1cc(OC)c(OC)c(OC)c1)[N+](C)(CCCOC(=O)CC(C)(C)CC(=O)OCCC[N+]1(C)CCc3cc(OC)c(OC)cc3[C@H]1Cc1cc(OC)c(OC)c(OC)c1)CC2.[Cl-].[Cl-] (some centres undefined)
Output line: 100

====

# Test system: Oryctolagus cuniculus
# test details: Neuromuscular blocking in rabbit model of propofol-induced anesthesia assessed as time duration of 25 to 90 percent recovery indices at 272.7 nmol/kg by train-of-four response method
# Assay type: functional
recorded endpoint: Time (min)
Kindly answer with a numeric value in min, unit omitted.

Examples with answers:
Input line: What value of Time has been reported for the following molecule? COc1cc2c(cc1OC)[C@@H](Cc1cc(OC)c(OC)c(OC)c1)[N+](C)(CCC(=O)OCCCCCCOC(=O)CC[N+]1(C)CCc3cc(OC)c(OC)cc3[C@H]1Cc1cc(OC)c(OC)c(OC)c1)CC2.O=S(=O)([O-])c1ccccc1.O=S(=O)([O-])c1ccccc1 (some centres undefined)
Output line: 12.17

Input line: Given the entry COc1cc2c(cc1OC)[C@@H](Cc1cc(OC)c(OC)c(OC)c1)[N@+](CCCOC(=O)CC/C=C/CCC(=O)OCCC[N@@+]1(CC3CC3)CCc3cc(OC)c(OC)cc3[C@H]1Cc1cc(OC)c(OC)c(OC)c1)(CC1CC1)CC2.[Cl-].[Cl-] , report its measured Time.
Output line: 7.87

Input line: // returns reported Time for input COc1cc2c(cc1OC)[C@@H](Cc1cc(OC)c(OC)c(OC)c1)[N+](C)(CCCOC(=O)CCCCC(=O)OCCC[N+]1(C)CCc3cc(OC)c(OC)cc3[C@H]1Cc1cc(OC)c(OC)c(OC)c1)CC2.[Cl-].[Cl-] (some centres undefined)
Output line: 8.13

Turning now to a further molecule:
Input line: Given the entry COc1cc2c(cc1OC)[C@@H](Cc1cc(OC)c(OC)c(OC)c1)[N+](C)(CCCOC(=O)CC(C)(C)CC(=O)OCCC[N+]1(C)CCc3cc(OC)c(OC)cc3[C@H]1Cc1cc(OC)c(OC)c(OC)c1)CC2.[Cl-].[Cl-] (some centres undefined) , report its measured Time.
Output line: 12.58

====

Quick reference for Emax at 0.2727 µmol/kg among some compounds
# Test system: Oryctolagus cuniculus
# test details: Neuromuscular blocking in rabbit model of propofol-induced anesthesia assessed as maximal blockade at 272.7 nmol/kg by train-of-four response method relative to control
# Format: functional
The figure you give is taken to be in %; do not add the unit.

Input line: Lookup: Emax at 0.2727 µmol/kg / Oryctolagus cuniculus / COc1cc2c(cc1OC)[C@@H](Cc1cc(OC)c(OC)c(OC)c1)[N+](C)(CCC(=O)OCC(F)(F)COC(=O)CC[N+]1(C)CCc3cc(OC)c(OC)cc3[C@H]1Cc1cc(OC)c(OC)c(OC)c1)CC2 (some centres undefined)
Output line: 0

====

# Tested on: Oryctolagus cuniculus
# test details: Neuromuscular blocking in rabbit model of propofol-induced anesthesia assessed as onset time at 272.7 nmol/kg by train-of-four response method
# Assay type: functional
recorded endpoint: Time (min)
// return numeric value only (unit: min, not printed)

Input line: GET /values?readout=Time&item= COc1cc2c(cc1OC)[C@@H](Cc1cc(OC)c(OC)c(OC)c1)[N@+](CCCOC(=O)CC/C=C/CCC(=O)OCCC[N@@+]1(CC3CCC3)CCc3cc(OC)c(OC)cc3[C@H]1Cc1cc(OC)c(OC)c(OC)c1)(CC1CCC1)CC2.[Cl-].[Cl-]
Output line: 2

Okay, now this compound:
Input line: Name the reported Time value associated with the compound COc1cc2c(cc1OC)[C@@H](Cc1cc(OC)c(OC)c(OC)c1)[N+](C)(CCCOC(=O)CCCC(=O)OCCC[N+]1(C)CCc3cc(OC)c(OC)cc3[C@H]1Cc1cc(OC)c(OC)c(OC)c1)CC2.[Cl-].[Cl-] (some centres not stated)
Output line: 0.75
